# method.notes: probe aLAP1 signal on lysate-treated microarray – cell lysate, small-molecule microarray, COS7 lysate, primary screen (AID 1124);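 also: lysate comes from COS7 cells expressing LAP1 and is applied at 0.3 µg/mL; score merges spot fluorescence near 667 nm with signal-to-noise over triplicate slides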
# condition.set: probe aLAP1, fluorescence, higher = more signal
Rule: composite z-score of 0.3 or more gives Fulfilled; anything lower gives Not fulfilled.

query: Record CC(C)N1C(=O)c2ccccc2[C@](C)(C(=O)NCCCN(C)C)[C@@H]1c1ccc(CO)cc1 ; criterion: composite z-score no lower than 0.3. Met?
result: Fulfilled

query: Test whether the molecule C=C[C@H](C)[C@H](OC(=O)Nc1ccc(OC)cc1)c1ccc(O)c2ccccc12 records composite z-score of 0.3 or higher.
result: Fulfilled

query: Say whether Cc1ccc(S(=O)(=O)N2CC(C(=O)O)=CCC2c2ccccc2)cc1 (stereo not drawn) shows composite z-score of 0.3 or more.
result: Fulfilled

query: Dear colleague, could you confirm whether CCCNC(=O)[C@@]1(C)c2ccccc2C(=O)N(C(C)C)[C@H]1c1ccc(CO)cc1 has composite z-score at or above 0.3?
result: Fulfilled

query: Decide: is the reported value of composite z-score for CCCCCCC#C[Si](O[C@H](c1ccccc1)c1cn([C@H](C)c2ccccc2)nn1)(C(C)C)C(C)C equal to or greater than 0.3?
result: Not fulfilled

query: Kindly determine if composite z-score recorded for COCCCNC(=O)[C@@]1(Sc2ccc(C)cc2)CC(=O)N(Cc2ccccc2)[C@@H]1c1ccc(CO)cc1 is above or exactly 0.3.
result: Fulfilled

query: Check this molecule for composite z-score at or above 0.3: Cc1ccc(S[C@]2(C(=O)NCC(C)C)CC(=O)N(Cc3ccccc3)[C@@H]2c2ccc(CO)cc2)cc1
result: Fulfilled

query: hey, is composite z-score for this one >= 0.3? C=CCC(OC(C)=O)[C@@H]1[C@@H](N(Cc2cc3ccccc3o2)C(=O)c2cccc3ccccc23)c2cc(OCCCO)ccc2N1C(=O)Cc1ccc2ccccc2c1 (stereo partly drawn)
result: Not fulfilled

query: Determine whether this molecule has composite z-score no lower than 0.3: C=C(CCCC)C(=O)CC[C@@H](OC(=O)c1ccccc1-c1ccccc1C(=O)O)c1ccc(CO)o1
result: Fulfilled

query: Reported composite z-score reaches at least 0.3 for COCCCNC(=O)[C@@]1(C)c2ccccc2C(=O)N(Cc2ccccc2)[C@H]1c1ccc(CO)cc1 ?
result: Fulfilled

query: Could you tell me if the measured composite z-score of CCCC[C@@H]1C[C@H]1[C@@H](NC(=O)c1ccccc1)c1ccc(-c2ccccc2)cc1 reaches 0.3 or more?
result: Not fulfilled

query: Check this molecule for composite z-score at or above 0.3: CCOC(=O)C=Cc1cccc(OC)c1O
result: Not fulfilled

query: Please check the record O=C1OCC=C[C@H]2OC34C=CCN(c5ccc6ccccc6c5)C(=O)[C@H]3N(CCO)C(=O)[C@@H]4[C@@H]12 (stereo partly drawn) and state if its composite z-score is at or above 0.3.
result: Not fulfilled

query: Is it the case that CN(C)CCCCCCNC(=O)[C@@H]1C[C@@H]2C(=O)NCC(=O)N2[C@@H]1c1cccc(OCCO)c1 has composite z-score reaching or exceeding 0.3?
result: Not fulfilled

query: Does composite z-score meet or surpass 0.3 for O=C(NCc1ccccc1)[C@@H]1c2ccccc2C(=O)N(C2CCCCC2)[C@H]1c1ccc(CO)cc1 ?
result: Fulfilled

query: Is it the case that O=C1C2C=CC(C(O)c3ccc(-c4ccccc4)s3)N(Nc3ccccc3F)C2C(=O)N1c1ccccc1 (stereo not drawn) has composite z-score reaching or exceeding 0.3?
result: Fulfilled

query: Is the recorded value of composite z-score equal to or greater than 0.3 for this molecule? COc1ccc([Si](C)(C)[C@H]2[C@H](CC(=O)N3CCC[C@H]3CO)O[C@@]3(C(=O)N(c4ccccc4)c4ccccc43)[C@@H]2C)cc1
result: Not fulfilled

query: Is the recorded value of composite z-score equal to or greater than 0.3 for this molecule? [N-]=[N+]=NCc1ccccc1C[C@]1(C(=O)NCc2ccccc2)COC(c2ccc(OCCCO)cc2)=N1
result: Fulfilled

query: Is the recorded value of composite z-score equal to or greater than 0.3 for this molecule? O=C1OCCC=C[C@H]2OC34C=CCN(CCN5CCOCC5)C(=O)[C@H]3N(CCO)C(=O)[C@@H]4C12 (stereo partly drawn)
result: Not fulfilled

query: Given the entry C[N+](C)(C)CCCC[C@@H]1NC(=O)[C@H]2C[C@@H](C(=O)O)[C@@H](c3cccc(OCCO)c3)N2C1=O , answer whether its composite z-score meets or surpasses 0.3.
result: Fulfilled

query: Hi, just wondering whether [N-]=[N+]=NCc1ccccc1C[C@]1(C(=O)N2CCOCC2)N=C(c2ccc(OCCCO)cc2)O[C@H]1c1ccccc1 shows composite z-score of 0.3 or higher.
result: Fulfilled

query: For this molecule, is measured composite z-score 0.3 or higher? C=C(COC)C(=O)CC[C@H](OC(=O)c1cccnc1)c1ccccc1OCCO
result: Fulfilled

query: Does the molecule C=C(CCCC)C(=O)CC[C@H](OC(C)=O)c1ccc(CO)o1 have recorded composite z-score that is 0.3 or more?
result: Not fulfilled
